# TARGET ENTITY: T1, Cynomolgus monkey serum albumin (CSA) (cynomolgus monkey, UniProt A2V9Z4 25-608)
# T1 construct: Bought protein (Abcam); also called cynomolgus monkey albumin
# T1 sequence (A2V9Z4 25-608): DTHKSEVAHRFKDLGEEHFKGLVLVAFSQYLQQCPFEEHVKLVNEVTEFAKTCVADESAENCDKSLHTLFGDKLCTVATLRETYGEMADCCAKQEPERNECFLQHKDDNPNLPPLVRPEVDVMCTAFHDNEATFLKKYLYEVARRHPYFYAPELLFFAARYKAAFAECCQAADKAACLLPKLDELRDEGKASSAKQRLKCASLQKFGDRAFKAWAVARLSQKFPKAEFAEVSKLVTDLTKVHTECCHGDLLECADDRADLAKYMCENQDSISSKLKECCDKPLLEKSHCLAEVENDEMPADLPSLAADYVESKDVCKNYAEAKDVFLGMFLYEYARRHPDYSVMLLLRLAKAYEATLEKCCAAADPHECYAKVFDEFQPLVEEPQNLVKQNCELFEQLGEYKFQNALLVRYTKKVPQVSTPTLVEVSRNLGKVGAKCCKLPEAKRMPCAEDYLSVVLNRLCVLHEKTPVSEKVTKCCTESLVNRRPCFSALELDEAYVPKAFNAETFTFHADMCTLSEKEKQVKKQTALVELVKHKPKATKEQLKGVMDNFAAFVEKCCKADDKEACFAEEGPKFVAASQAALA
# EXPERIMENTAL PROTOCOL: ELISA on coated cynomolgus monkey albumin, anti-human Fc HRP, A650, one site-total binding fit
Can you tell me Bmax for the items I'm about to list?

Dear colleague, I am looking for the recorded Bmax of the following binder: 4A01v3 (Fc fusion, also called Hz4A01v3; not shown: Human Fc carrier and its linker) VHH: EVQLVESGGGEVQPGGSLRLSCAASGFAFSTSGMVWVRQAPGKGLEWVSTISDDARIIRYAESVKGRFTISRDNAKNTLYLQMNSLRAEDTAVYYCATYRAGSRIGSYEDYYRGQGTLVTVKP
0.994 A650

Also check 4A01v5 (Fc fusion, not shown: a dimerising Fc or GST; small tags and cut ends, also called Hz4A01v5) VHH: EVQLVESGGGEVQPGGSLRLSCAASGFAFSTSGMVWVRQAPGKGLEWVSTISDEGRIIRYAESVKGRFTISRDNAKNTLYLQMNSLRAEDTAVYYCATYRAGSRIGSYEDYYRGQGTLVTVKP
0.939 A650

Also check 4A01v4 (Fc fusion, not shown: a dimerising Fc or GST; small tags and cut ends, also called Hz4A01v4) VHH: EVQLVESGGGEVQPGGSLRLSCAASGFAFSTSGMVWVRQAPGKGLEWVSTISDESRIIRYAESVKGRFTISRDNAKNTLYLQMNSLRAEDTAVYYCATYRAGSRIGSYEDYYRGQGTLVTVKP
0.954 A650

Also check 4A01v6 (Fc fusion, not shown: a dimerising Fc or GST; small tags and cut ends, also called Hz4A01v6) VHH: EVQLVESGGGEVQPGGSLRLSCAASGFAFSTSGMVWVRQAPGKGLEWVSTISDSGRIIRYAESVKGRFTISRDNAKNTLYLQMNSLRAEDTAVYYCATYRAGSRIGSYEDYYRGQGTLVTVKP
0.961 A650
